- Read-out: Human Leukocyte Antigen - DR isotype (HLADR), HLA-DRA (gene 3122)
- PROTOCOL_SUMMARY: BSK_3C_HLADR: BioMAP Diversity Plus: 3C Assay for Human Leukocyte Antigen - DR isotype (HLADR) Biomarker Activity (AID 2283019)
- MEASUREMENT_CONTEXT: primary human endothelial cells (HUVEC); actives raise or lower the signal
The source made the active and inactive calls. How the source made its calls: active means hit-call score of the fitted dose curve at least 0.9, where 1 is the maximum; inactive means score below 0.9.
EXPERIMENTAL_ENDPOINT: AC50

Solved entries (count: 7):
{"SMILES_DATA": "CCCCOC(=O)[C@@H](C)Oc1ccc(Oc2ccc(C(F)(F)F)cn2)cc1", "AC50": "inactive"}
{"SMILES_DATA": "CC(=O)S[C@@H]1CC2=CC(=O)CC[C@]2(C)[C@H]2CC[C@@]3(C)[C@@H](CC[C@@]34CCC(=O)O4)[C@H]12", "AC50": "26.3 µM (active)"}
{"SMILES_DATA": "CCCCCOC(=O)COc1cc(N2C(=O)C3=C(CCCC3)C2=O)c(F)cc1Cl", "AC50": "19.2 µM (active)"}
{"SMILES_DATA": "CCCN(CCC)c1c([N+](=O)[O-])cc(C(F)(F)F)c(N)c1[N+](=O)[O-]", "AC50": "18.4 µM (active)"}
{"SMILES_DATA": "CC(=O)[C@H]1CC[C@H]2[C@@H]3CCC4=CC(=O)CC[C@]4(C)[C@H]3CC[C@]12C", "AC50": "20 µM (active)"}
{"SMILES_DATA": "CCNc1nc(N)nc(Cl)n1", "AC50": "inactive"}
{"SMILES_DATA": "CCN(CC)C(=O)c1cccc(C)c1", "AC50": "inactive"}

// next entry
Task item: What does the record list as AC50 for `CCCOC(=O)NCCCN(C)C` ?
Reply: inactive
